Test system: HL-60(TB) leukemia
procedureDetails: NCI tumour cell line growth inhibition, 48 h
reportedMetric: log10(TGI) (log10 of the value in µM)
Reminder: these figures are log10 of reported TGI, in µM before transformation.

Kindly note: HL-60(TB) leukemia, O=S(=O)(Nc1ccc(Cl)c(Cl)c1)c1ccc(-c2cnc(C3CC3)o2)cc1 , log10(TGI) value reported: 0.54

Kindly note: HL-60(TB) leukemia, COC(=O)c1cc(C)[nH]c2c(C)cc3nc4ccccc4c3c12 , log10(TGI) value reported: 1.74

Kindly note: HL-60(TB) leukemia, COC(=O)C#CC(N)=O , log10(TGI) value reported: 1.30

Kindly note: HL-60(TB) leukemia, CCCCCCCCCCCCCCCCCCNc1nc(=O)n(C2CC(OP(=O)(O)OCC3OC(n4cc(F)c(=O)[nH]c4=O)CC3O)C(CO)O2)cc1F (centres undefined) , log10(TGI) value reported: 1.31

Kindly note: HL-60(TB) leukemia, CC(=O)/C(=C/N1CCN(C(=O)c2ccco2)C1=S)C(=O)c1ccccc1 , log10(TGI) value reported: 1.29

Kindly note: HL-60(TB) leukemia, CC1(C2CCC3(C)C(C2)C3Sc2ccccc2)OCCO1 (centres undefined) , log10(TGI) value reported: 1.47
